- experimental.system: CYP2C9 (Homo sapiens, UniProt P11712)
- Sequence (P11712 whole entry): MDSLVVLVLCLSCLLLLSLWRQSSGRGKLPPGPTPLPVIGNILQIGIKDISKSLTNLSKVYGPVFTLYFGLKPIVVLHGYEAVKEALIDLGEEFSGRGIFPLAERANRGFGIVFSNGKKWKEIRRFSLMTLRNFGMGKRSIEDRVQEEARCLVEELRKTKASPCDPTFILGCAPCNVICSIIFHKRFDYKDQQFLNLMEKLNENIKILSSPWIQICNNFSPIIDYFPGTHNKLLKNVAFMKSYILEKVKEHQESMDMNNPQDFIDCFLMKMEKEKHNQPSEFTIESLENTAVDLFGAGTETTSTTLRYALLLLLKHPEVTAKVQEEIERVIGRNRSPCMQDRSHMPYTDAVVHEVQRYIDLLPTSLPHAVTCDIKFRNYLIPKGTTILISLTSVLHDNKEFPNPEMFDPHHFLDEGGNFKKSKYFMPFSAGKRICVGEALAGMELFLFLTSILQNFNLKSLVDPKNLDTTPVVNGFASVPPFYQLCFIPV
- assay.summary: in vitro
readout.name: Km (µM)
Write it as a number; the unit µM goes unstated.

Q: # value lookup — system CYP2C9 (Homo sapiens, UniProt P11712), readout Km, item "O=C(O)Cc1ccccc1Nc1c(Cl)cccc1Cl"
Ans: 47

###

- experimental.system: CYP1A2 (Homo sapiens, UniProt P05177)
- Sequence (P05177 whole entry): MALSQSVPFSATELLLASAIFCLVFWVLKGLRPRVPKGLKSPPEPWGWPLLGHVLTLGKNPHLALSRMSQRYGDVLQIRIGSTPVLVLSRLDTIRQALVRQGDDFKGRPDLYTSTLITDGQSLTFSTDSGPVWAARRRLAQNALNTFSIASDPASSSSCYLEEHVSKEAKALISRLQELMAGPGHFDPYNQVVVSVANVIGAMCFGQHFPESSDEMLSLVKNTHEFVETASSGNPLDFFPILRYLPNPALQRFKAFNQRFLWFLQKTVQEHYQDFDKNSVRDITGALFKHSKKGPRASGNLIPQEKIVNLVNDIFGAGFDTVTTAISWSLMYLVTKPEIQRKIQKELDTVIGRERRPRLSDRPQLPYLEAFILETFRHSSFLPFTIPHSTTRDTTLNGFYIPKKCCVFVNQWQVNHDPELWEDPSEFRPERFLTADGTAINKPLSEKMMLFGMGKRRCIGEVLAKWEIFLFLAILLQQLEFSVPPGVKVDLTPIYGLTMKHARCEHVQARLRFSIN
readout.name: pIC50
# pIC50 = -log10(concentration in molar units)

Q: # input compound: COc1cc(/C=C/C(=O)N2CCC=CC2=O)cc(OC)c1OC [PPL, Piperlongumine] ; wanted: its pIC50
Ans: 5.14

Values compiled from paper PMC5041077.
